# MEASUREMENT_NOTES: qHTS Assay for Foot and Mouth Disease Virus Antivirals: Primary Screen against the MLPCN compound library; also: nearly all actives have a fitted effect of over 55% in size
# TEST_CONDITIONS: FMDV antiviral cell-based qHTS; series mostly up to 57.9 µM
About 2,000 (0.49%) of roughly 410,000 compounds were called active. Another 8% or so got no clear call; they are omitted. What follows is part of a selection rich in actives, with near analogues and random picks from the rest.
MEASUREMENT_NAME: outcome

Solved cases (5 shown):
compound=CC1=[N+](C)c2ccc3ccccc3c2C1(C)C meas_value=inactive
compound=COc1ccc(/C=C2\CN(Cc3ccccc3)C/C(=C\c3ccc(OC)cc3)C2=O)cc1 meas_value=inactive
compound=O=c1[nH]c(SCc2ccccc2Cl)nc2c1cnn2-c1ccccc1 meas_value=inactive
compound="O=C(C1COc2ccccc2O1)N1CCN(S(=O)(=O)c2ccccc2)CC1 (stereo unspecified)" meas_value=inactive
compound=COc1cc(/C=C2/CCc3ccccc3C2=O)cc(OC)c1OC meas_value=inactive

Let us move to another entry and its outcome.
Requested read-out: outcome. Entry: CC(=O)N(Cc1cc2cc(C)ccc2[nH]c1=O)c1cccc(C)c1C
inactive

###

# MEASUREMENT_NOTES: qHTS Assay for Foot and Mouth Disease Virus Antivirals: Primary Screen against the MLPCN compound library; also: nearly all actives have a fitted effect of over 55% in size
# TEST_CONDITIONS: FMDV antiviral cell-based qHTS; series mostly up to 57.9 µM
Out of some 410,000 compounds screened, about 2,000 (0.49%) were called active. Roughly 8% stayed inconclusive and do not appear here. Calls follow the shape of the full dose curve; tested in HEK293 reporter line. The sample holds actives, similar compounds and a random draw of the others, so the mix is not that of the screen.
Lab note: assign the record to one of Yes for active, No for inactive

Please let me know the test result on file for CN(C)S(=O)(=O)N1CCC(Oc2cccc(C(=O)NCCC3=CCCCC3)c2)CC1 .
No

Try the compound Cc1ccccc1CS(=O)(=O)c1ccc(C(=O)N2CCOCC2)cc1[N+](=O)[O-]
No

Try the compound COc1cc(NC(=O)Nc2cccc(Cl)c2)c(C(=O)O)cc1OC
No

Try the compound Cc1ccc(Nc2nc(N)nc(CN3CCN(c4ccccc4F)CC3)n2)cc1
No

Try the compound Cc1ccc(F)c([C@H]2C3C=CCC(c4ccccc4)C3C(=O)N2Cc2ccccc2)c1 (some centres not stated)
No

Try the compound O=C(Nc1ccc2nc(SCCOc3ccccc3)sc2c1)c1ccc2c(c1)OCO2
No

Try the compound COc1cc(NC(=O)Cc2ccc(S(=O)(=O)N3CCOCC3)s2)c(OC)cc1Cl
No

Try the compound CCc1ccc(S(=O)(=O)N/N=C\c2ccc3c(c2)OCO3)cc1
No

Try the compound CC(C)[C@@H](C(=O)N1CCN(Cc2ccc3c(c2)OCO3)CC1)n1nnc2ccccc2c1=O
No

Try the compound Cc1ccc(S(=O)(=O)Nc2c(C)cc([N+](=O)[O-])cc2C)cc1
No

###

# MEASUREMENT_NOTES: qHTS Assay for Foot and Mouth Disease Virus Antivirals: Primary Screen against the MLPCN compound library; also: nearly all actives have a fitted effect of over 55% in size; also: potency is read from the fitted curve at half-maximal effect
# TEST_CONDITIONS: FMDV antiviral cell-based qHTS; series mostly up to 57.9 µM
Out of some 410,000 compounds screened, about 2,000 (0.49%) were called active. Roughly 8% stayed inconclusive and do not appear here. Many of the other results were omitted from the sample, so actives are more common in it than they were.
MEASUREMENT_NAME: Potency

molecule=CCc1cccc(C)c1NC(=O)c1cc2ccccc2o1 measurement_name=Potency meas_value=inactive
molecule="CCCCC(CC)CNC(=O)c1ccc2c(=O)n(CCOC)c(=O)[nH]c2c1 (stereo unspecified)" measurement_name=Potency meas_value=inactive
molecule=Cc1nc(NC(=O)c2cc3ccccc3o2)sc1C measurement_name=Potency meas_value="17.8 µM (active)"
molecule=CC(=O)c1cccc(NC(=O)CNC(=O)c2cc3ccccc3o2)c1 measurement_name=Potency meas_value=inactive
molecule="COC(OC)C12c3ccccc3C(c3ccccc31)C1C(=O)N(c3cccnc3)C(=O)C12 (stereo unspecified)" measurement_name=Potency meas_value=inactive

Let us move to another entry and its Potency.
Requested read-out: Potency. Entry: COc1ccc(C(CC(=O)Nc2cc([N+](=O)[O-])ccc2OC)c2ccccc2)cc1 (stereo unspecified)
inactive
